system: SK-MEL-5 melanoma; assay: NCI-60 one-dose screen, 48 h; conditions: 10 µM unless noted
The panel holds about 83,000 compounds, 20% with a hit somewhere; the sample as a whole holds those more often. Activity calls are given as the source filed them. Rule for the calls: active = growth percent below 10; inactive = the rest.
Outcomes: 1 = active, 0 = inactive

- CCCCCCNC(=O)Oc1ccc(/C(=C(/C)c2ccc(OC)cc2)c2ccc(OCCN3CCCC3)cc2)cc1: 0
- CN1C(=O)N(C)C2C1NN=c1s/c(=C\c3ccccn3)c(=O)n12 (stereo not drawn): 0
- Cc1ccc(NC(=O)N[C@@H](Cc2cc(F)cc(F)c2)C(=O)NC2C(=O)N3CCC[C@H]3C(=O)N3CCCC[C@H]3C(=O)N[C@@H](C)C(=O)N3C[C@H](C)C[C@H]3C(=O)O[C@H]2C)c(F)c1 (stereo partly drawn): 1
- C#CCOc1ccc(C(Nc2ccc(Cl)cc2)c2nnnn2C2CCCCC2)cc1 (stereo not drawn): 0
- CCCCCCNC(=O)Oc1ccc(/C(=C(\C)c2ccc(OC)cc2)c2ccc(OCCN(C)C)cc2)cc1: 0
- O=c1c2ccccc2nc(COc2ccccc2)n1/N=C/C=C/c1ccccc1: 0
- COc1ccc(Cn2cc3c(c2-c2cc(OC)c(OC)c(OC)c2)CCCc2cnoc2-3)cc1: 0
- CN1CCN(c2nc(-c3csc(-c4ccncc4)n3)cc3ccccc23)CC1: 0
